Values were extracted from paper PMC12136788.

Listing of entries alongside the reported binding signal.
experimental_target: T1, UNK ZnF1-6 (called full-length) (human, UniProt Q9C0B0 30-357)
T1 sequence: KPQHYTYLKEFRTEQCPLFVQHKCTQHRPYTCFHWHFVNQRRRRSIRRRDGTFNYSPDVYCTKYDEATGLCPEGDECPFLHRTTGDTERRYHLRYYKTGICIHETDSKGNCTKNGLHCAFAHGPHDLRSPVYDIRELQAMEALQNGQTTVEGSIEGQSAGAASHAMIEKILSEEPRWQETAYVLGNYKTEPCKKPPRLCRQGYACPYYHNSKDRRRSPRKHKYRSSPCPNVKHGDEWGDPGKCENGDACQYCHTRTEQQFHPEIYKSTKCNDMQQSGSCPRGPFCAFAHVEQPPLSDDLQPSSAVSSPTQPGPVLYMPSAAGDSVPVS
assay_comment: nsRBNS (natural sequence RNA bind-n-seq); RBNS binding buffer (assumed for nsRBNS): 25 mM Tris pH 7.5, 150 mM KCl, 3 mM MgCl2, 0.01% Triton X-100, 500 ug/ml BSA, 20 U/ml SUPERase-In, 4 C; UNK is unkempt and MSI1 is Musashi-1; names of the RNAs are library labels; protein concentration not given here; high values mean tight binding
The full ranking holds about 5,800 sequences; the median of “enrichment r” is about 0.68, and the highest 2% start at about 11. The sample holds the highest values, similar sequences and a random draw of the others, so the mix is not that of the screen.
# value in enrichment R; strip the unit string

Example entries and their recorded answers appear below.
binder: chr15:69268886:69268987:+|CDS|ENSG00000138604|unk|total|mutant (ssRNA) RNA: GGGAGUUCUACAGUCCGACGAUCGGAGUUAAAGCUGUGUUUAUGAAUAAACAUGACUGGUAUGAAGAAUAUCCAACCACACCCCGCUCUUUUGUUUUAAAUGGCUUUAUGUAUUCUUUAAUUGGGCUGUAUGACUUAAAAGAACAACAGAGGAUUGAGCAUCA
reported: 0.547
//
binder: chr1:93365539:93365640:+|3pUTR|ENSG00000117505|unk|FALSE|unique (ssRNA) RNA: GGGAGUUCUACAGUCCGACGAUCAGGAGGCAAAAUUGCACCCUGUUGAAAACCACCACCUUAGAUCAUCUAGGUUUUACUUUUAGGAUAAGACACUUGAGGGAAAGGCUGUGAAACUGAACCUCUGUUAGAAGCAACACACAGCAACAGAGGAUUGAGCAUCA
reported: 5.47

Now for another entry.
// query binding signal value for entry chr1:228098150:228098251:+|3pUTR|ENSG00000143761|msi1_unk|total|mutant (ssRNA) RNA: GGGAGUUCUACAGUCCGACGAUCGCACCGUGCUGUAAAUGUGGCAGACGCAGCCUGCGGCCAGGCUUUUUAUUUAAUGUAAACCGUUUUUGUUUCCAAUGAGGCAGUUUCUGGUACUCCUAUGCAAUAUUACUCAGCUUUUUUCAACAGAGGAUUGAGCAUCA
0.896
